experiment: Components of the Cytosolic LPS Sensing Pathway: Gene Identification via Genome-wide siRNA Screen; conditions: RAW264.7 macrophages, IL-1a HTRF, actives lie on both sides, screened at 100 nM (by protocol), cells primed 5 h with Pam3CSK4 first
The campaign covered roughly 53,000 sequences. About 3,700 (7%) were called active. Only a selection was taken, and actives are over-represented in it overall.
// label = fulfilled if z-score is not less than 0.08, otherwise not fulfilled

Solved entries (count: 5):
GACAGUGCACGAUCUGAUUTT against Pfn3    fulfilled
GGAGAUUUUCCAGAGGCUGTT against Josd1    not fulfilled
GGCUCUCUGGAGAAUCAUGTT against Slc25a28    not fulfilled
GUAUGGAUGUGGAAGCCUCTT against Olfr1417    not fulfilled
CCAGUGACAUUCAAUACCUTT against Lrif1    not fulfilled

Task: Test whether the sequence GGCUCUUUGUUCAGUUUUUTT against Fxyd3 records z-score of 0.08 or higher.
Result: fulfilled
